Source listed as ChEMBL document CHEMBL1131993.

# TGT: Muscarinic acetylcholine receptor M2 (Homo sapiens) (UniProt P08172)
# Sequence (whole entry): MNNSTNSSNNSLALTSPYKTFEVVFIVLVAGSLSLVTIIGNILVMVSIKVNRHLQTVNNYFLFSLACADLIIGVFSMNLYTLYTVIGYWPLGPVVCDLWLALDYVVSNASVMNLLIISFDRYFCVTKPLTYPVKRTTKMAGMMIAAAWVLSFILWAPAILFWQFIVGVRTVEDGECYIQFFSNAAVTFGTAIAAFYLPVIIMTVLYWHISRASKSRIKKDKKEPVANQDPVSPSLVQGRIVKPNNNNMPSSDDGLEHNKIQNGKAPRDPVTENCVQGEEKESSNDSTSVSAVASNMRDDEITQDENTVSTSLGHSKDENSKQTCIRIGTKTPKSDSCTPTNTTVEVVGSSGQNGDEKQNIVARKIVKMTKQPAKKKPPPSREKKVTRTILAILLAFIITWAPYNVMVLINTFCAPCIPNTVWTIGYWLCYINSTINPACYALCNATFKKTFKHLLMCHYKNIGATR
# ASSAY_SUMMARY: Ability to displace [3H]N-methylscopolamine binding to M2 human recombinant muscarinic receptor in CHO cells at concentration 10 uM
# Format: cell-based
ENDPOINT_LABEL: inhibition (%)

1. N#Cc1ccc(-c2cc(/C=C3/CN4CCC3CC4)on2)cc1 ... 23
2. CC(C)(C)OC(=O)Nc1ccc(-c2cc(/C=C3/CN4CCC3C4)on2)cc1 (stereo not given) ... 23
3. Nc1ccc(-c2cc(/C=C3/CN4CCC3CC4)on2)cc1 ... 30
4. COc1ccc(COc2ccc(-c3cc(/C=C4/CN5CCC4C5)on3)cc2OCc2ccc(OC)cc2)cc1 (stereo not given) ... 78
5. Cc1ccc(-c2cc(/C=C3\CN4CCC3CC4)on2)cc1 ... 13
6. COc1ccc(-c2cc(/C=C3/CN4CCC3CC4)on2)cc1 ... 63
7. COc1ccc(COc2ccc(-c3cc(/C=C4\CN5CCC4C5)on3)cc2OCc2ccc(OC)cc2)cc1 (stereo not given) ... 95
8. COc1ccc(COc2ccc(-c3cc(/C=C4\CN5CCC4CC5)on3)cc2)cc1 ... 46
9. CC(C)(C)OC(=O)Nc1ccc(-c2cc(/C=C3/CN4CCC3CC4)on2)cc1 ... 67
10. COc1ccc(COc2ccc(-c3cc(/C=C4/CN5CCC4CC5)on3)cc2OCc2ccc(OC)cc2)cc1 ... 89

* * *

# TGT: Muscarinic acetylcholine receptor M3 (Homo sapiens)
# ASSAY_SUMMARY: Ability to displace [3H]N-methylscopolamine binding to M3 human recombinant muscarinic receptor in CHO cells at concentration 1 uM
# Assay type: cell-based
ENDPOINT_LABEL: inhibition (%)

1) COc1ccc(COc2ccc(-c3cc(/C=C4/CN5CCC4CC5)on3)cc2)cc1 ... 22
2) Oc1ccc(-c2cc(/C=C3\CN4CCC3C4)on2)cc1O (stereo unspecified) ... 0
3) CC(C)(C)OC(=O)Nc1ccc(-c2cc(/C=C3/CN4CCC3C4)on2)cc1 (stereo unspecified) ... 26
4) Oc1ccc(-c2cc(/C=C3\CN4CCC3CC4)on2)cc1O ... 0
5) N#Cc1ccc(-c2cc(/C=C3/CN4CCC3CC4)on2)cc1 ... 1
6) COc1ccc(-c2cc(/C=C3\CN4CCC3CC4)on2)cc1OC ... 0
